Biological target: human PD-L1 (human) (UniProt Q9NZQ7)
Sequence (Q9NZQ7 19-290): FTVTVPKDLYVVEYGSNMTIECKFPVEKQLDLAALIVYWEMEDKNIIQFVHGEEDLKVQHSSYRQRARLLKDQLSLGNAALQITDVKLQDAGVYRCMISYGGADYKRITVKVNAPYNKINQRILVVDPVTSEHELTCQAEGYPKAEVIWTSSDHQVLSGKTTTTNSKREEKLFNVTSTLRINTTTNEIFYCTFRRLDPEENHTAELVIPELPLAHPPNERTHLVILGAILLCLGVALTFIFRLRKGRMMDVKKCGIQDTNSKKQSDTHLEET
Assay: flow cytometry, CHO cells expressing huPD-L1
Parameter threshold = 8000 MFI. Response is satisfied when MFI at 33.3 nM meets or exceeds it, else not satisfied.

{"binder": "variant CD80 IgV-Fc E35D/V68M/L85Q (Fc fusion) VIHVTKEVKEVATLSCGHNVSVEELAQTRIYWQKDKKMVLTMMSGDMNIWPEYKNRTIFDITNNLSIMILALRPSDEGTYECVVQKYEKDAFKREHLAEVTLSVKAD", "discrete-label": "not satisfied"}
{"binder": "variant CD80 IgV-Fc V22A/E35D/M47I/Y87N (Fc fusion) VIHVTKEVKEVATLSCGHNVSAEELAQTRIYWQKDKKMVLTMMSGDINIWPEYKNRTIFDITNNLSIVILALRPSDEGTYECVVLKNEKDAFKREHLAEVTLSVKAD", "discrete-label": "satisfied"}
{"binder": "variant CD80 IgV-Fc Q27H/Q33L/E35D/M47V/N55D/L85Q/K89N (Fc fusion) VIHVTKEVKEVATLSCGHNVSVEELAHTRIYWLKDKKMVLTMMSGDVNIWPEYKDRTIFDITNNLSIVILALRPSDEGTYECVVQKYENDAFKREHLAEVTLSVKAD", "discrete-label": "satisfied"}
{"binder": "variant CD80 IgV-Fc E35D/K89N (Fc fusion) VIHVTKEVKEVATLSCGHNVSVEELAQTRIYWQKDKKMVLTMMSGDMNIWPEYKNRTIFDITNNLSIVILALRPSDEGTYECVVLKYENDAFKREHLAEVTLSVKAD", "discrete-label": "not satisfied"}
{"binder": "variant CD80 IgV-Fc E35D/N48K/K89N (Fc fusion) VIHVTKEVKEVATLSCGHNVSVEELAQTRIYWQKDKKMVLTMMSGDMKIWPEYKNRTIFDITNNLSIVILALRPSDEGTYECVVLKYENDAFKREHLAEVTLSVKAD", "discrete-label": "not satisfied"}
{"binder": "variant CD80 IgV-Fc H18Y/V20A/Q33L/E35D/M47V/Y53F (Fc fusion) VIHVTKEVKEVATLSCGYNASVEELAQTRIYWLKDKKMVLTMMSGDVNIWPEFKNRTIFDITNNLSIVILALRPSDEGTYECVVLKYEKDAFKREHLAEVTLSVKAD", "discrete-label": "satisfied"}
{"binder": "variant CD80 IgV-Fc E35D/M47V/A71G (Fc fusion) VIHVTKEVKEVATLSCGHNVSVEELAQTRIYWQKDKKMVLTMMSGDVNIWPEYKNRTIFDITNNLSIVILGLRPSDEGTYECVVLKYEKDAFKREHLAEVTLSVKAD", "discrete-label": "satisfied"}

Shift focus to the following entry.
Exercise: Dear colleague, could you confirm whether variant CD80 IgV-Fc E35D/M47L (Fc fusion) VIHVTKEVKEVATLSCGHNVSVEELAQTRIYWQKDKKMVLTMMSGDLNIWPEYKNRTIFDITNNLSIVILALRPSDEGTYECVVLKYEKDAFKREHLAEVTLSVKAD has MFI at 33.3 nM at or above 8000 MFI?
Key: not satisfied
